B1: recombinant CEACAM1 N-terminal domain with His tag (rCEACAM1-N-HIS), wildtype [human] / IgI3 domain of R28 (R28-IgI3), wildtype [Streptococcus pyogenes] (parent complex)
chain 1: AQLTTESMPFNVAEGKEVLLLVHNLPQQLFGYSWYKGERVDGNRQIVGYAIGTQQATPGPANSGRETIYPNASLLIQNVTQNDTGFYTLQVIKSDLVNEEATGQFHVY
chain 2: TAPTLTVTPEQQTVKVDEDITFTVTVEDENEVELGLDDLKAKYENDIIGARVKIKYLTKEPNKKVMEVTIMKATLADKGAITFTAKDKAGNQAEPKTVTINVLPLKDSNEPKLPSTGGS

Variants of: B1
Experiment: Dynabead binding assay (Dynabeads coated with R28-IgI3, DB.R28IgI3, incubated with rCC1-N variants); parent: 23; read off a plot
Recorded response by entry

chain 1 V97A = ~100
chain 1 L96A = ~6
chain 1 I92A = ~5
chain 1 N98A = ~90
chain 1 Q90A = ~10
chain 1 Q45A = ~20

Next up:
Briefly, response measured for chain 1 F30A : ~5.5

Values compiled from paper PMC10119177.
